# SUBJECT_OF_TEST: GluR5 (Rattus norvegicus, UniProt P22756)
# Construct: expressed in transfected cells; HEK 293 (patch clamp)
# Sequence (P22756 with tags, fused parts or gaps isoform P22756-2): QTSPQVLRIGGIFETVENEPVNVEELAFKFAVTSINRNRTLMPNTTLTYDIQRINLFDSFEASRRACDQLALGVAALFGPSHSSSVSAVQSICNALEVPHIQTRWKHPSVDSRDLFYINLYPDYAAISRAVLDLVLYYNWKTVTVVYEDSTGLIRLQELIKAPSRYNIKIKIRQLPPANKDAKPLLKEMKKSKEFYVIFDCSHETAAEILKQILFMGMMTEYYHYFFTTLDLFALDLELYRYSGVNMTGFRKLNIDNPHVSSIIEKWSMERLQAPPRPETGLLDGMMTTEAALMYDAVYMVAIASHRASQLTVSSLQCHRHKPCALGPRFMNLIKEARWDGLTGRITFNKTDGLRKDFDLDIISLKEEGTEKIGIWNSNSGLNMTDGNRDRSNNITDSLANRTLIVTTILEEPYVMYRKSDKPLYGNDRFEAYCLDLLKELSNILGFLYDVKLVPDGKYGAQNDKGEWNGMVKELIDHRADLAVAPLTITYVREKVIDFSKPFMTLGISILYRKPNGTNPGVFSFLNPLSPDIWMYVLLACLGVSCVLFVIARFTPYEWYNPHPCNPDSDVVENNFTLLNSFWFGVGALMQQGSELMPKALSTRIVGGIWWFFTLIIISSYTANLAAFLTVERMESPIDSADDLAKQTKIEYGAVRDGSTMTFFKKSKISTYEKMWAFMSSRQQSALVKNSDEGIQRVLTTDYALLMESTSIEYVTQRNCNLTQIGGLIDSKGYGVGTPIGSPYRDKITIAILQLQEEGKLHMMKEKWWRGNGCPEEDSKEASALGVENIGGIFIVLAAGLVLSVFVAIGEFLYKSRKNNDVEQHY
# MEASUREMENT_NOTES: Patch-clamp recordings from transfected HEK 293 cells, Example 1
# Assay type: cell-based
# ASSAY_CONDITIONS: Example 1, FIG. 3 and 5
EXPERIMENTAL_ENDPOINT: agonist or antagonist at GluR5 (electrophysiology)

| COMPOUND | VALUE_OBSERVED |
| --- | --- |
| N[C@@H](C[C@]1(C(=O)O)C[C@H]2OC[C@@H](O)C[C@H]2O1)C(=O)O [8-deoxy-neoDH] | GluR5 agonists |
| N[C@@H](C[C@]1(C(=O)O)C[C@H]2OCC[C@@H](O)[C@H]2O1)C(=O)O [9-deoxy-neoDH] | GluR5 agonists |

###

# SUBJECT_OF_TEST: GluR5-2a (Rattus norvegicus, UniProt P22756, DEL402-416)
# Construct: expressed in transfected cells; host or cells: HEK-293-T/17
# MEASUREMENT_NOTES: Whole-cell patch clamp recordings, transfected HEK-293-T/17 cells, Example 2
# Assay type: cell-based
# ASSAY_CONDITIONS: 2.5 min analog application, then co-application with 10 mM glutamate; read-out: IC50 for pre-desensitization of GluR5-2a receptors
EXPERIMENTAL_ENDPOINT: IC50
Record the result as a number with its unit.

# input For the compound N[C@@H](C[C@]1(C(=O)O)C[C@H]2OCC[C@@H](O)[C@H]2O1)C(=O)O [9-deoxy-neoDH] , what IC50 is on record?
# output 151 nM

###

# SUBJECT_OF_TEST: GluR6a (Rattus norvegicus, UniProt P42260)
# Construct: expressed in transfected cells; host or cells: HEK-293-T/17
# Sequence (P42260 32-908): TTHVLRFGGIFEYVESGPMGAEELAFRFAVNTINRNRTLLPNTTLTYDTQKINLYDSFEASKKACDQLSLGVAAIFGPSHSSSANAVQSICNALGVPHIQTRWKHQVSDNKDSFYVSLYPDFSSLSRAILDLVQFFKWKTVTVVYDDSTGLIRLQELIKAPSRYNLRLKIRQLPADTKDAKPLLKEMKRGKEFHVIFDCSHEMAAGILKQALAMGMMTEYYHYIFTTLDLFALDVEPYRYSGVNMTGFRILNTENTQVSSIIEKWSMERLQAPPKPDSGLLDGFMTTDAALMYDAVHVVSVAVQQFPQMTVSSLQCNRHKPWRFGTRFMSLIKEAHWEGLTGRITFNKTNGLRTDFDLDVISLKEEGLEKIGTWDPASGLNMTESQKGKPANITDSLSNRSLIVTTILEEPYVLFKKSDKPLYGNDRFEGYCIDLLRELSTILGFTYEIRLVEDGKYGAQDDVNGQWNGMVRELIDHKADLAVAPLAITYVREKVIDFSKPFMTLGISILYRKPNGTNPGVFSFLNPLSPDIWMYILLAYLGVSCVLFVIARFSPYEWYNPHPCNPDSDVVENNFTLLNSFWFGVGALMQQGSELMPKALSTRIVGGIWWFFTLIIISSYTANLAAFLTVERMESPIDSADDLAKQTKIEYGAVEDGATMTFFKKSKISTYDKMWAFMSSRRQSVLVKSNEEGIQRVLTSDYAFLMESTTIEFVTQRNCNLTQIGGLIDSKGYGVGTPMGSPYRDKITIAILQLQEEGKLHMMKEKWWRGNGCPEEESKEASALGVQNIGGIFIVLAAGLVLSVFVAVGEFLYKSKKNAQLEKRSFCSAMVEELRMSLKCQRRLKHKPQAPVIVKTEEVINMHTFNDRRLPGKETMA
# MEASUREMENT_NOTES: Radioligand binding ([3H]kainate displacement), HEK-293-T/17 membranes, Example 2
# ASSAY_CONDITIONS: Ki GluR6a, [3H]kainate displacement; Cheng-Prusoff
EXPERIMENTAL_ENDPOINT: pKi
The meaning of pKi here: minus log10 of the concentration in molar units.

# input For the molecule N[C@@H](C[C@]1(C(=O)O)C[C@H]2OC[C@@H](O)C[C@H]2O1)C(=O)O , what pKi is on record?
# output 4.32

###

# SUBJECT_OF_TEST: other KAR and AMPAR subunits
# Construct: Ki values at other KAR and AMPAR subunits (all subunits except those named); other: estimated
# MEASUREMENT_NOTES: Radioligand binding, remaining subunits stated collectively, Example 2
# ASSAY_CONDITIONS: estimated; read-out: Ki values at other KAR and AMPAR subunits (all subunits except those named)
Assign Ki to each entry below.

# input For the compound N[C@@H](C[C@]1(C(=O)O)C[C@H]2OC[C@@H](O)C[C@H]2O1)C(=O)O , what Ki is on record?
# output > 10 µM

# input For the compound N[C@@H](C[C@]1(C(=O)O)C[C@H]2OCC[C@@H](O)[C@H]2O1)C(=O)O , what Ki is on record?
# output > 100 µM

# input For the compound N[C@@H](C[C@@]1(C(=O)O)CC2OCC(O)C(O)C2O1)C(=O)O (single isomer, unassigned) [2,4-epi-neoDH, 2,4-epi-neodysiherbaine] , what Ki is on record?
# output > 100 µM
